These data points were gathered from ChEMBL document CHEMBL1201862.

Measured GI50 accompanies every entry in the list below.
- Test system: OVCAR-8
- ASSAY: NCI tumour cell line growth inhibition, 48 h
Active and inactive are the calls of the source. Cut-off read from the data, not from the text of the source: active = GI50 up to about 1.1 µM and inactive = higher.

MOLECULE: O=[N+]([O-])c1cc(-c2nnc(C34CC5CC(CC(C5)C3)C4)o2)cc([N+](=O)[O-])c1
ASSAY TARGET: OVCAR-8
GI50: 25.5 µM (inactive)

MOLECULE: CC1NC(/C(=C/c2ccccc2O)NC(=O)c2ccccc2)OC1=O (stereo not drawn)
ASSAY TARGET: OVCAR-8
GI50: > 50 µM (inactive)

MOLECULE: COc1cc(/C=N/NC(=O)c2c(Cl)c(Cl)c(Cl)c(Cl)c2-c2nc3ccccc3[nH]2)ccc1O
ASSAY TARGET: OVCAR-8
GI50: 31.1 µM (inactive)

MOLECULE: O=C(Nc1c(C(F)(F)F)cc(-c2ccccc2)[nH]c1=O)N1CCOCC1
ASSAY TARGET: OVCAR-8
GI50: > 100 µM (inactive)

MOLECULE: COc1ccc(-n2cnc3c(NCC(=O)O)ncnc32)cc1
ASSAY TARGET: OVCAR-8
GI50: > 100 µM (inactive)

MOLECULE: Cc1cc2c(c(C(N)=O)c1C)-c1ccccc1C2=O
ASSAY TARGET: OVCAR-8
GI50: > 100 µM (inactive)

MOLECULE: CN(C)c1nc(N(C)C)nc(N(C)C23CC4CC(CC(C4)C2)C3)n1
ASSAY TARGET: OVCAR-8
GI50: 32.1 µM (inactive)

MOLECULE: O=C(Nc1ccccc1C(=O)NCc1ccccc1)/C(=C/c1ccccc1O)NC(=O)c1ccccc1
ASSAY TARGET: OVCAR-8
GI50: 95.1 µM (inactive)

MOLECULE: FC(F)(F)C1(C(F)(F)F)O[Si]2(OC(C(F)(F)F)(C(F)(F)F)c3ccccc32)c2ccccc21
ASSAY TARGET: OVCAR-8
GI50: 8.75 µM (inactive)

MOLECULE: C=C[C@@]1(C)CC(=O)[C@]2(O)[C@@]3(C)[C@@H](OC(C)=O)CCC(C)(C)[C@@H]3[C@H](O)[C@H](OC(C)=O)[C@@]2(C)O1
ASSAY TARGET: OVCAR-8
GI50: > 100 µM (inactive)

MOLECULE: O=c1c(Cl)c(Cl)cnn1CCc1ccncc1
ASSAY TARGET: OVCAR-8
GI50: 22.1 µM (inactive)

MOLECULE: c1ccc2c(c1)[Se]c1ccccc1[Se]2
ASSAY TARGET: OVCAR-8
GI50: > 100 µM (inactive)

MOLECULE: CCCCCCCCCCCCCCCCCC(=O)OCC(C[As](=O)(O)O)OC(=O)CCCCCCCCCCCCCCCCC (stereo not drawn)
ASSAY TARGET: OVCAR-8
GI50: > 100 µM (inactive)

MOLECULE: O=C1C(NS(=O)(=O)c2ccccc2)=C(n2ccnc2)C(=O)c2ccccc21
ASSAY TARGET: OVCAR-8
GI50: > 100 µM (inactive)

MOLECULE: c1cc2c3c(c1)[C@@H]1O[C@@H]1c1cccc(c1-3)[C@@H]1O[C@H]21
ASSAY TARGET: OVCAR-8
GI50: 17.9 µM (inactive)

MOLECULE: O=C1Nc2ccccc2/C1=C1/Nc2ccccc2/C1=N/OCCO
ASSAY TARGET: OVCAR-8
GI50: > 100 µM (inactive)

MOLECULE: CC(C)(C)OC(=O)NC1CC=CCC1NC(=O)OC(C)(C)C (stereo not drawn)
ASSAY TARGET: OVCAR-8
GI50: > 100 µM (inactive)

MOLECULE: Cc1ccc(S(=O)(=O)N(CCN2C(=O)c3ccccc3C2=O)c2cc3c4c(c2)Oc2cc(N(CCN5C(=O)c6ccccc6C5=O)S(=O)(=O)c5ccc(C)cc5)cc5c2C4(C)c2c(cc(N(CCN4C(=O)c6ccccc6C4=O)S(=O)(=O)c4ccc(C)cc4)cc2O5)O3)cc1
ASSAY TARGET: OVCAR-8
GI50: > 100 µM (inactive)
